Target: human NHE3 (Homo sapiens)
Sequence (P48764 26-834): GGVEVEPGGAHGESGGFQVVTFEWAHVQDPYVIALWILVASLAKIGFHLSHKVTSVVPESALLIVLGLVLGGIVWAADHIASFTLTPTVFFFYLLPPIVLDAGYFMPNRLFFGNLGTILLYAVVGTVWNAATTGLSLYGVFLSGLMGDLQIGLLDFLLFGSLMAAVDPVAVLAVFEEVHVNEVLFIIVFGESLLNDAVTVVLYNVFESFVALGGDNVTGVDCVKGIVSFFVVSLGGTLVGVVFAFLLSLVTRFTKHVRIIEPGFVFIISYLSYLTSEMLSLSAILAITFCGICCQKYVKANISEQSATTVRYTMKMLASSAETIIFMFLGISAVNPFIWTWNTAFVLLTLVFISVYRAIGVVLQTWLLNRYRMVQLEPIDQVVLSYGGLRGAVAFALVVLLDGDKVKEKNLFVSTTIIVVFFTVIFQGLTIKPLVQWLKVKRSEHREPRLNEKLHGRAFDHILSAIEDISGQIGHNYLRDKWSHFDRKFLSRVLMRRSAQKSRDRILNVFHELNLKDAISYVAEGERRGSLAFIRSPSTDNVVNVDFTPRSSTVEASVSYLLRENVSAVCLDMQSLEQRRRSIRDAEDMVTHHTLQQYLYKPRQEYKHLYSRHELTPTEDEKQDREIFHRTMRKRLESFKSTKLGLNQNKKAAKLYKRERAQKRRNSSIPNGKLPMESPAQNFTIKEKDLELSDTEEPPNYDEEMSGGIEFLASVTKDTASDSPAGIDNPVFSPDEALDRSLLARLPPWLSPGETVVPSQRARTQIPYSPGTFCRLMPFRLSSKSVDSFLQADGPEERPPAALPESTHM
Test: Cell-based assay of NHE-3 activity (human NHE3 inhibition assay)
Set-up: expressed in transfected cells; host or cells: Opossum kidney (OK) cells (ATCC), electroporated
Conditions: OK cells with human NHE-3 gene, BCECF pH recovery, 0-30 μM test compound; read-out: Human NHE3 pIC50 (converted)
List of IC50 values.

chem_smiles=NC(CCC(=O)NCCOCCOCCOCCNS(=O)(=O)c1ccc(O[C@H]2c3ccccc3C[C@@H]2N2CCCCC2)cc1)(CCC(=O)NCCOCCOCCOCCNS(=O)(=O)c1ccc(O[C@H]2c3ccccc3C[C@@H]2N2CCCCC2)cc1)CCC(=O)NCCOCCOCCOCCNS(=O)(=O)c1ccc(O[C@H]2c3ccccc3C[C@@H]2N2CCCCC2)cc1 val="< 100 nM"

Task item: Item under review: O=C(NCCCCNC(=O)NCCOCCOCCOCCNS(=O)(=O)c1ccc(O[C@H]2c3ccccc3C[C@@H]2N2CCCCC2)cc1)NCCOCCOCCOCCNS(=O)(=O)c1ccc(O[C@H]2c3ccccc3C[C@@H]2N2CCCCC2)cc1 . Reported IC50?
Reply: < 100 nM

###

Biological target: human NHE3 (Homo sapiens, UniProt P48764)
Test: Cell-based assay of NHE-3 activity (persistent inhibition), human
Conditions: PS120 fibroblasts stably expressing human NHE3, 60 min incubation then washout; read-out: pIC50 (human Persistence assay) (converted)
List of IC50 values.

compound="O=C(NCCCCNC(=O)NCCOCCOCCOCCNS(=O)(=O)c1ccc(O[C@H]2c3ccccc3C[C@@H]2N2CCCCC2)cc1)NCCOCCOCCOCCNS(=O)(=O)c1ccc(O[C@H]2c3ccccc3C[C@@H]2N2CCCCC2)cc1 [Example 16]" test_target="human NHE3 (Homo sapiens, UniProt P48764)" val="> 1000 nM"

Task item: Item under review: CN(C)[C@H]1Cc2c(Cl)cc(Cl)cc2[C@@H]1Oc1ccc(S(=O)(=O)NCCOCCOCCNC(=O)[C@H](O)[C@@H](O)C(=O)NCCOCCOCCNS(=O)(=O)c2ccc(O[C@H]3c4cc(Cl)cc(Cl)c4C[C@@H]3N(C)C)cc2)cc1 [Example 5] . Reported IC50?
Reply: 100 to 1000 nM

Task item: Item under review: O=C(NCCCCNC(=O)NCCOCCOCCNS(=O)(=O)c1ccc(O[C@H]2c3cc(Cl)cc(Cl)c3C[C@@H]2N2CC[C@@H](O)C2)cc1)NCCOCCOCCNS(=O)(=O)c1ccc(O[C@H]2c3cc(Cl)cc(Cl)c3C[C@@H]2N2CC[C@@H](O)C2)cc1 [Example 30] . Reported IC50?
Reply: < 100 nM

Task item: Item under review: CN(C)[C@H]1Cc2ccc(Cl)cc2[C@@H]1Oc1ccc(S(=O)(=O)NCCOCCOCCNC(=O)NCCCCNC(=O)NCCOCCOCCNS(=O)(=O)c2ccc(O[C@H]3c4cc(Cl)ccc4C[C@@H]3N(C)C)cc2)cc1 [Example 21] . Reported IC50?
Reply: < 100 nM

Task item: Item under review: CN(C)[C@H]1Cc2c(Cl)cc(Cl)cc2[C@@H]1Oc1ccc(S(=O)(=O)NCCOCCOCCNC(=O)CCC(C)(N)CCC(=O)NCCOCCOCCNS(=O)(=O)c2ccc(O[C@H]3c4cc(Cl)cc(Cl)c4C[C@@H]3N(C)C)cc2)cc1 [Example 11] . Reported IC50?
Reply: < 100 nM

Task item: Item under review: CN(C)[C@H]1Cc2ccc(F)cc2[C@@H]1Oc1ccc(S(=O)(=O)NCCOCCOCCNC(=O)NCCCCNC(=O)NCCOCCOCCNS(=O)(=O)c2ccc(O[C@H]3c4cc(F)ccc4C[C@@H]3N(C)C)cc2)cc1 [Example 22] . Reported IC50?
Reply: > 1000 nM
